Recorded values, source PubChem BioAssay AID1996.

test.conditions: buffer; pH 7.4; 200.0 µM
Quick rule for you: solubility kinetic at 30 µg/mL or higher means Fulfilled, lower means Not fulfilled.

Input line: Reported solubility kinetic reaches at least 30 µg/mL for `CC(C)NC(=O)N1CCN(c2ccncc2S(=O)(=O)N2CCCCC2)CC1` ?
Output line: Fulfilled

Input line: What would you report for `COc1cccc(/C=C/C(=O)NCc2ccc3c(c2)OCO3)c1` ?
Output line: Not fulfilled

Input line: What would you report for `O=C(OCc1cc(Cl)cc2c1OCOC2)c1cccnc1Cl` ?
Output line: Not fulfilled

Input line: What would you report for C=Cn1ccnc1P(O)(=S)c1nc(C)c(CCOC(C)=O)s1 (centres undefined) ?
Output line: Fulfilled

Input line: What would you report for `C=C(C)n1c(=O)n(Cc2ccc(C)cc2)c2ccccc21` ?
Output line: Not fulfilled

Input line: What would you report for `Cc1ccc(NC(=O)N2CCCc3ccccc32)cc1` ?
Output line: Fulfilled

Input line: What would you report for `Cc1cccc(N2CCN(C(=O)c3ccc4c(c3)OCCO4)CC2)c1C` ?
Output line: Not fulfilled

Input line: What would you report for O=C(Nc1nccs1)C1CCCN1/C=C/C(=O)C(F)(F)F (centres undefined) ?
Output line: Fulfilled

Input line: What would you report for `COc1ccc(/C=C/C(=O)OCC(=O)Nc2cccc(S(=O)(=O)NC3=NCCCCC3)c2)cc1` ?
Output line: Not fulfilled

Input line: What would you report for `Cn1cnc2cc(NCc3ccccc3Cl)ccc21` ?
Output line: Fulfilled

====

test.conditions: buffer; pH 7.4; 200.0 µM
endpoint.label: solubility kinetic (µg/mL)
Field format: number, assumed µg/mL, no unit text.

compound	recorded.value
COc1ccc(OC)c(N=Cc2c(O)c3ccccc3oc2=O)c1	3.6

Input line: Query: solubility kinetic; subject: `Cc1ccc(C(=O)NCc2ccc3c(c2)OCO3)cc1`
Output line: 34.8

Input line: What would you report for COc1ccc(NC(=S)NC(C)c2ccncc2)cc1OC (stereo unspecified) ?
Output line: 46.7

Input line: What would you report for `Cc1cccc(NC(=S)NCCc2ccccc2)c1C` ?
Output line: 4.1

====

test.conditions: buffer; pH 7.4; 200.0 µM
endpoint.label: solubility kinetic

Input line: Query: solubility kinetic; subject: `COC(=O)c1ccc(S(=O)(=O)N2CCOCC2)o1`
Output line: > 41.3 µg/mL

Input line: What would you report for CC(C)C1Cc2ccccc2-c2[nH]c(=S)[nH]c(=O)c21 (stereo unspecified) ?
Output line: 27 µg/mL

====

test.conditions: buffer; pH 7.4; 200.0 µM
Quick rule for you: solubility kinetic at 9 µg/mL or higher means Satisfied, lower means Not satisfied.

# example entries with known answers
compound	category
COc1ccc(-c2noc(-c3ccc(Br)o3)n2)cc1	Not satisfied
COC(=O)c1ccc(CNC(=O)[C@@H]2CCCN2S(=O)(=O)c2ccccc2F)cc1	Satisfied
CN(C)c1ccc(/C=N/NC(=O)c2ccn(C)n2)cc1	Satisfied

Input line: Reported solubility kinetic reaches at least 9 µg/mL for `Cn1c(Cc2ccccc2)nnc1SCC(=O)NCCc1ccccc1` ?
Output line: Satisfied

Input line: What would you report for `Cc1nc2ccccc2n1CCOc1ccccc1` ?
Output line: Satisfied

====

test.conditions: buffer; pH 7.4; 200.0 µM
Response field class: enum, chosen by comparing solubility kinetic against interval 1: < 8 µg/mL; interval 2: ≥ 8 µg/mL and < 40 µg/mL; interval 3: ≥ 40 µg/mL

compound	category
O=C(c1ccccc1)N1CCCN(c2nccc(C(F)(F)F)n2)CC1	interval 3
Cc1nc(SCC(=O)N(C)C2CCS(=O)(=O)C2)c2ccccc2n1 (centres undefined)	interval 3
Cc1cc(C(=O)NC2CCCCCC2)c2ccccc2n1	interval 2
COc1ccc(NC(=O)NC2CCCc3ccccc32)c(OC)c1 (centres undefined)	interval 1
CC1(C)CN(C(=S)Nc2ccc(F)cc2F)C1=O	interval 1

Attention now turns to another entry.
Input line: Band for the recorded solubility kinetic of COc1ccccc1C1=NOC(CN2C(=O)c3ccccc3S2(=O)=O)C1 (centres undefined) ?
Output line: interval 2

====

Property: solubility kinetic; scope: individual molecules
test.conditions: buffer; pH 7.4; 200.0 µM
Field format: number, assumed µg/mL, no unit text.

// known answers, use as guide
compound.structure.string	result.units	solubility kinetic
O=c1[nH]c2ccccc2nc1CCc1ccccc1	µg/mL	1.4
Cc1cc(C)c(C)c(OCCN2CCOCC2)c1	µg/mL	27.3
CN1C(=O)C(=O)N(c2cccc(C(F)(F)F)c2)C1=O	µg/mL	39.9
O=C(CCCN1CCC2(CC1)C(=O)NCN2c1ccccc1)c1ccc(F)cc1	µg/mL	50.1

Input line: Query: solubility kinetic; subject: `Cc1[nH]c2c(C)cccc2c(=O)c1CN1CCCCCC1`
Output line: 39.5

Input line: What would you report for `CCOC(=O)C1CCN(C(=O)Nc2ccc(OC(F)(F)F)cc2)CC1` ?
Output line: 16.1

Input line: What would you report for `Cc1ccsc1CNC12CC3CC(CC(C3)C1)C2.Cl` ?
Output line: 38.1

Input line: What would you report for `Cc1cc(C(=O)O/N=C(\N)c2ccc(C(C)(C)C)cc2)no1` ?
Output line: 2.9

Input line: What would you report for `COc1cccc(NC(=S)Nc2cc(C)cc(C)n2)c1` ?
Output line: 0.3

====

test.conditions: buffer; pH 7.4; 200.0 µM
endpoint.label: solubility kinetic

Input line: Query: solubility kinetic; subject: `c1cn(CCCNC2CCCCCCC2)cn1`
Output line: 23.9 µg/mL

Input line: What would you report for `CC(=O)Nc1cccc(C(=O)OCC(=O)NC(=O)c2ccccc2)c1` ?
Output line: 3.5 µg/mL

Input line: What would you report for `O=c1[nH]cc(S(=O)(=O)NCc2ccccc2)c(=O)[nH]1` ?
Output line: > 42.2 µg/mL

Input line: What would you report for `CCOC(=O)c1ccc(NC(=S)N2CCN(CCO)CC2)cc1` ?
Output line: > 50.6 µg/mL

Input line: What would you report for `Cc1cc(C)cc(NC(=O)Oc2ccccc2N2CCCCC2)c1` ?
Output line: 10.1 µg/mL

Input line: What would you report for Clc1cccc(C2CCN(Cc3nc(CC4CC4)no3)C2)c1 (stereo not drawn) ?
Output line: 12.3 µg/mL

Input line: What would you report for `Cc1[nH]c2ccccc2c1C(=O)COC(=O)c1nccnc1N` ?
Output line: 6.9 µg/mL

Input line: What would you report for `O=S(=O)(c1ccc(-c2cc(C(F)(F)F)on2)s1)N1CCCC1` ?
Output line: 1 µg/mL

Input line: What would you report for `O=C(COC(=O)c1ccc([N+](=O)[O-])s1)NNC(=O)c1ccccc1` ?
Output line: > 52.4 µg/mL

====

test.conditions: buffer; pH 7.4; 200.0 µM
endpoint.label: solubility kinetic

compound	endpoint.label	recorded.value
O=C(Cc1ccccc1)NCC(=O)Nc1cccc(Cl)c1	solubility kinetic	10 µg/mL
CCOC(=O)c1ccc(N=Cc2c(O)c3ccccc3oc2=O)cc1	solubility kinetic	4.7 µg/mL
Cc1cccc(NC(=O)CCCN2C(=O)C3CC=CCC3C2=O)c1 (centres undefined)	solubility kinetic	> 49 µg/mL
CC(C(=O)Nc1ccc(S(=O)(=O)N2CCCC2)cc1)N(C)CC(=O)Nc1cccc(F)c1 (centres undefined)	solubility kinetic	28.7 µg/mL
O=C1CC(c2ccccc2)CC2=C1C=Nc1ccccc1N2 (centres undefined)	solubility kinetic	37 µg/mL
COc1cc(C(=O)N=c2sccn2C)c([N+](=O)[O-])cc1OC	solubility kinetic	47.2 µg/mL
Cc1noc(C)c1C(=O)NCCc1c(C)[nH]c2ccccc12	solubility kinetic	41.5 µg/mL
COc1ccc(OC)c(S(=O)(=O)NCCCN2CCOCC2)c1.Cl	solubility kinetic	> 57.1 µg/mL
Cc1nc(NC(=O)COC(=O)[C@@H](NC(=O)c2ccco2)C(C)C)c(Cl)cc1Cl	solubility kinetic	> 64.2 µg/mL
COc1ccc(OCC(=O)NCc2ccc(Cl)cc2)cc1	solubility kinetic	3.3 µg/mL

Input line: Query: solubility kinetic; subject: `COc1ccc2nc(SCC(=O)NC3CC3)c(C#N)cc2c1`
Output line: 0.8 µg/mL

Input line: What would you report for CC(NC(=O)CN1CCOCC1)c1ccc(F)cc1 (centres undefined) ?
Output line: > 39.9 µg/mL

====

test.conditions: buffer; pH 7.4; 200.0 µM
endpoint.label: solubility kinetic (µg/mL)
Field format: number, assumed µg/mL, no unit text.

compound	result.units	recorded.value
COc1ccc(C(=O)NCCc2nc3cc([N+](=O)[O-])ccc3n2C)cc1	µg/mL	2.5

Input line: Query: solubility kinetic; subject: Cc1ccc2c(c1)C1(C)C(C(C)(C)N2C=O)C1(Cl)Cl (stereo not given)
Output line: 39.3

Input line: What would you report for `COc1ccc(/C=N/OC(=O)Nc2ccc(Cl)cc2)c(OC)c1` ?
Output line: 6.2

Input line: What would you report for `O=C(NCCc1ccc(F)cc1)c1coc(=O)c(Br)c1` ?
Output line: 2.9

Input line: What would you report for `Cc1c(N)cccc1-n1cccc1` ?
Output line: 20

Input line: What would you report for `Cc1ccc(Cn2ccsc2=NC(=O)COC(=O)c2ccc(O)cc2O)cc1` ?
Output line: 2.7

Input line: What would you report for `CC(C)Cn1c(=S)[nH]c2ccccc2c1=O` ?
Output line: 1.6

Input line: What would you report for COc1ccc(Cl)cc1NCCC(O)c1ccc(F)cc1 (stereo not given) ?
Output line: 24.7

Input line: What would you report for `COc1ccc(NC(=O)/C(=C/c2cccs2)NC(=O)c2ccco2)cc1` ?
Output line: 5

Input line: What would you report for O=C(c1ccc(F)cc1)N1CCCC(c2ccccc2)C1 (stereo not given) ?
Output line: 36.3

Input line: What would you report for `Nc1ccccc1Sc1ccc(C(F)(F)F)cc1[N+](=O)[O-]` ?
Output line: 5.6

Input line: What would you report for `Cc1ccc(NC(=O)CN(C)C(=O)COC(=O)c2ccc(NC(=O)CC#N)cc2)cc1` ?
Output line: 36
